target: Corticotropin-releasing factor CRF1 (Homo sapiens); construct: expressed in transfected cells; host or cells: CHO cells; test: functional assay, cAMP HTRF, CHO cells (Table S2); format: cell-based; conditions: Ovine CRF (10 nM); read-out: IC50 (µM), functional antagonism
Sequence (P34998 24-415): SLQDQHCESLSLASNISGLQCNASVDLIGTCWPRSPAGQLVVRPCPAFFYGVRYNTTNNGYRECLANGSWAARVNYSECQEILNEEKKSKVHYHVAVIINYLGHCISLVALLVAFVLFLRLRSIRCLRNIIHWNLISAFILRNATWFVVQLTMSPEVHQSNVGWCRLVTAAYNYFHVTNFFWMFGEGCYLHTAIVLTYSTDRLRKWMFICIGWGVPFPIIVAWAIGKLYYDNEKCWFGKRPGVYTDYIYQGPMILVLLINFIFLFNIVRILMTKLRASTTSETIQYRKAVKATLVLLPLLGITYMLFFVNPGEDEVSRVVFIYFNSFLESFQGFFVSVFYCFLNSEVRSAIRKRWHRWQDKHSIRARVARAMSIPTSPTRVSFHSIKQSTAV
Result Type: IC50 (µM)
Quick reminder: number only, in µM, skip the unit.

**Query** Report IC50 for Cc1cc(-c2ncnn2C)c2cccc(OCc3c(Cl)cc(F)cc3[C@H](C)NC(=O)COC(F)F)c2n1 [Compound 3] please.
**Result** 10

----------
assay: Caco-2 permeation assay (bidirectional); conditions: human
Papp B→A at 60 min, 10 µM overview
A number alone suffices; assume ×10⁻⁶ cm/s.

Cc1cc(-c2ncnn2C)c2cccc(OCc3c(Cl)cncc3CNC(=O)C3CCCCC3)c2n1 ... 20.9

Lab note: next molecule to report on.
**Query** Please give the measured Papp B→A at 60 min, 10 µM for this molecule: Cc1cc(-c2ncnn2C)c2cccc(OCc3c(Cl)cncc3C(C)NC(=O)COC(F)F)c2n1 (racemic)
**Result** 29.9

----------
Molecular target: B2 receptor (Homo sapiens, UniProt P30411)
Sequence (P30411 1-391): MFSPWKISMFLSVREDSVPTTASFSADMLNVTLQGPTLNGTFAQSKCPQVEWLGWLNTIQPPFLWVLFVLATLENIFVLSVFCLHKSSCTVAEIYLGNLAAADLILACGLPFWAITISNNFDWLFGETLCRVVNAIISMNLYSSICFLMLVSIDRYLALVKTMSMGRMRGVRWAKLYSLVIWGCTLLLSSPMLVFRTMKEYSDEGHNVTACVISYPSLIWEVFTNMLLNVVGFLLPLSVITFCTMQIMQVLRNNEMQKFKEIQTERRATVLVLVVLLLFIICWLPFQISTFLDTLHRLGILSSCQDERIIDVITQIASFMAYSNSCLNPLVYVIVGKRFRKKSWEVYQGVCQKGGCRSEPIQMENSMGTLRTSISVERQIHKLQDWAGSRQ
Assay: reversibility of antagonism after washout, umbilical vein
Settings: BK EC50 (nM), antagonist present, 3 h, Compound 3 10 nM; vehicle 3 h 18.7 nM
Result Type: EC50
Respond with the figure and its unit, in that order.

**Query** Which EC50 is reported for this compound? Cc1cc(-c2ncnn2C)c2cccc(OCc3c(Cl)cc(F)cc3[C@H](C)NC(=O)COC(F)F)c2n1
**Result** 225 nM

----------
Biological target: B2 receptor (Homo sapiens)
Sequence (P30411 1-391): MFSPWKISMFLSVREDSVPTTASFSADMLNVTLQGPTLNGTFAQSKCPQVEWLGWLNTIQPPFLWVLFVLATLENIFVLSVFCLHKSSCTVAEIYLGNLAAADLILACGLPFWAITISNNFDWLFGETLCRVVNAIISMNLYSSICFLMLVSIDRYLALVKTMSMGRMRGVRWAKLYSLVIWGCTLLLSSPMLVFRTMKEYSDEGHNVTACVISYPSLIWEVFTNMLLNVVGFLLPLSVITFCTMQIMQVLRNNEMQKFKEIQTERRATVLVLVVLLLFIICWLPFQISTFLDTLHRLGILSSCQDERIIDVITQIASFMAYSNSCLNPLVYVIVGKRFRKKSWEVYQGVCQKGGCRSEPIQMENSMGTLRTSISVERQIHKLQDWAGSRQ
Experiment: Ca^2+ mobilization assay, transfected CHO cells
Assay type: cell-based
Parameters: host or cells: CHO cells
Settings: inhibition of response to 0.03 nM BK; geometric mean; read-out: IC50 (nM) Geometric mean
Result Type: IC50 (nM)
Field: numeric (nM). Do not append units.

// solved cases for IC50 follow
Cc1cc(-c2ncnn2C)c2cccc(OCc3c(Cl)cncc3C(C)NC(=O)COC(F)F)c2n1 (racemic) [Compound 2] ... 8.3
Cc1cc(-c2ncnn2C)c2cccc(OCc3c(Cl)cc(F)cc3[C@H](C)NC(=O)COC(F)F)c2n1 [Compound 3] ... 2.13

# ---- query compound ----
**Query** Please look up its IC50: Cc1cc(-c2ncnn2C)c2cccc(OCc3c(Cl)cncc3CNC(=O)C3CCCCC3)c2n1 [Compound 1]
**Result** 11

----------
assay: Caco-2 permeation assay (bidirectional); conditions: human
As shown below, each of these compounds has a reported Papp A→B at 60 min, 10 µM value.
Give the value, in units of ×10⁻⁶ cm/s, as a plain number.

Cc1cc(-c2ncnn2C)c2cccc(OCc3c(Cl)cncc3CNC(=O)C3CCCCC3)c2n1 ... 5.5

**Query** Quick one: Papp A→B at 60 min, 10 µM for Cc1cc(-c2ncnn2C)c2cccc(OCc3c(Cl)cncc3C(C)NC(=O)COC(F)F)c2n1 (racemic) ?
**Result** 3.9

----------
molecular target: TP (TXA2/PGH2) (Homo sapiens, UniProt P21731); assay: functional assay, intracellular [Ca2+], HEK-293 cells (Table S2)
Sequence (P21731 whole entry): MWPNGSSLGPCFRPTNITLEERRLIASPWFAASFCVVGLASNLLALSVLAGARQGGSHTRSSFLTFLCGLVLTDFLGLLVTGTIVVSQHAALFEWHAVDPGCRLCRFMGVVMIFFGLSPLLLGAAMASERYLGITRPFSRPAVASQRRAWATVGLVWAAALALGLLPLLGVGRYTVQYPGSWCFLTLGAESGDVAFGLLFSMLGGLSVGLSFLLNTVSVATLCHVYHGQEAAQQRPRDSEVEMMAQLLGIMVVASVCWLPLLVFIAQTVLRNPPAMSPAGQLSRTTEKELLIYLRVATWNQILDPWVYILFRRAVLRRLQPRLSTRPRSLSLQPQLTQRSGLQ
Result Type: IC50 (µM)
Kindly answer with a numeric value in µM, unit omitted.

**Query** Fill blank: measured IC50 of the molecule Cc1cc(-c2ncnn2C)c2cccc(OCc3c(Cl)cc(F)cc3[C@H](C)NC(=O)COC(F)F)c2n1 is ____.
**Result** 3.6

----------
test: in vitro; conditions: male, Wistar, rat, microsomes, pH 7.4
Result Type: microsomal CLint at 1 µM (µL/min/mg)
The response must be a number in µL/min/mg with no trailing unit.

**Query** Record request: microsomal CLint at 1 µM value, item Cc1cc(-c2ncnn2C)c2cccc(OCc3c(Cl)cc(F)cc3[C@H](C)NC(=O)COC(F)F)c2n1
**Result** 27.9

----------
assay: microsomal stability; conditions: male, Wistar, rat, liver microsomes, pH 7.4
Examples of compounds with documented microsomal CLint at 1 µM follow.
The figure you give is taken to be in µL/min/mg; do not add the unit.

Cc1cc(-c2ncnn2C)c2cccc(OCc3c(Cl)cncc3CNC(=O)C3CCCCC3)c2n1 ... 960

// next entry
**Query** Tell me the measured microsomal CLint at 1 µM of Cc1cc(-c2ncnn2C)c2cccc(OCc3c(Cl)cncc3C(C)NC(=O)COC(F)F)c2n1 (racemic) , please.
**Result** 497

----------
Biological target: endogenous human B2 receptor (Homo sapiens, UniProt P30411)
Construct: BK-induced contraction at endogenous human B2 receptor in the umbilical vein model; from tissue; host or cells: human umbilical vein rings (donor cords after elective caesarean section)
Sequence (P30411 1-391): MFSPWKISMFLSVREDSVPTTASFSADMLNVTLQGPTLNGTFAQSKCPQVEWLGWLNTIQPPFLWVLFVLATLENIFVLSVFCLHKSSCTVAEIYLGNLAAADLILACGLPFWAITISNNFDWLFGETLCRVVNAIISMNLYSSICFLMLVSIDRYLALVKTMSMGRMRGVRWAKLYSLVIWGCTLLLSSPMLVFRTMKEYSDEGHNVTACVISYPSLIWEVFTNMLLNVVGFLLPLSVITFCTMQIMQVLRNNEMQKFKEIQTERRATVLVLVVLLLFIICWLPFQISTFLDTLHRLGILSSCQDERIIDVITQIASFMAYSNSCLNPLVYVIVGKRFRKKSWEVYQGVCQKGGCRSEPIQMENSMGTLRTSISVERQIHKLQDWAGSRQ
Assay: human isolated umbilical vein contractility assay, BK-induced contraction
Details: BK concentration-effect curves, Emax
Result Type: type of antagonism of BK

Cc1cc(-c2ncnn2C)c2cccc(OCc3c(Cl)cncc3CNC(=O)C3CCCCC3)c2n1 ... competitive
Cc1cc(-c2ncnn2C)c2cccc(OCc3c(Cl)cncc3C(C)NC(=O)COC(F)F)c2n1 (racemic) ... competitive
Cc1cc(-c2ncnn2C)c2cccc(OCc3c(Cl)cc(F)cc3[C@H](C)NC(=O)COC(F)F)c2n1 ... competitive

----------
target: B2 receptor (Homo sapiens, UniProt P30411); assay: reversibility of antagonism after washout, umbilical vein; details: BK EC50 (nM), antagonist present, 3 h, Compound 3 100 nM; vehicle 3 h 7.5 nM
Result Type: EC50 (nM)
Unit nM implied. Number only.

**Query** Please report the recorded EC50 for Cc1cc(-c2ncnn2C)c2cccc(OCc3c(Cl)cc(F)cc3[C@H](C)NC(=O)COC(F)F)c2n1 [Compound 3] .
**Result** 713

----------
Reported Maximal BK-induced response in absolute force units ± S.E.M. values for the following molecules.
Molecular target: endogenous human B2 receptor (Homo sapiens, UniProt P30411)
Construct: BK-induced contraction at endogenous human B2 receptor in the umbilical vein model; from tissue; host or cells: human umbilical vein rings (donor cords after elective caesarean section)
Sequence (P30411 1-391): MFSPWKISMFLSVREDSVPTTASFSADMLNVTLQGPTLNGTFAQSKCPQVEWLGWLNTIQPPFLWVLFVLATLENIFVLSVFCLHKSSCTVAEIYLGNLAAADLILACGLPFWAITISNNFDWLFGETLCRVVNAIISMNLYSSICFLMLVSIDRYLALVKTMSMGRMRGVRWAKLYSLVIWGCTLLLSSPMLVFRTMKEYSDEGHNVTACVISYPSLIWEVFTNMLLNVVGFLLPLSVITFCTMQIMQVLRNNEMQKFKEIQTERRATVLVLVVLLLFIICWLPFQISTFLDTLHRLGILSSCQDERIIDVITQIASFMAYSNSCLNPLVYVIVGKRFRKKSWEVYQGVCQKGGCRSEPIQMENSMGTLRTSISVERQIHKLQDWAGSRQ
Test: human isolated umbilical vein contractility assay, BK-induced contraction
Conditions: antagonist 1 μM; vehicle: Icatibant 1.90, Compound 1 […], Compound 2 2.25, Compound 3 1.52
Reply with just the number (in grams-weight).

Cc1cc(-c2ncnn2C)c2cccc(OCc3c(Cl)cncc3CNC(=O)C3CCCCC3)c2n1 ... 1.46

**Query** Would you kindly share the measured Maximal BK-induced response in absolute force units ± S.E.M. for Cc1cc(-c2ncnn2C)c2cccc(OCc3c(Cl)cncc3C(C)NC(=O)COC(F)F)c2n1 (racemic) ?
**Result** 2.00

**Query** // lookup Maximal BK-induced response in absolute force units ± S.E.M. for Cc1cc(-c2ncnn2C)c2cccc(OCc3c(Cl)cc(F)cc3[C@H](C)NC(=O)COC(F)F)c2n1
**Result** 1.25

**Query** Give its Maximal BK-induced response in absolute force units ± S.E.M. value. Item: NC(N)=NCCC[C@@H](N)C(=O)N[C@@H](CCCN=C(N)N)C(=O)N1CCC[C@H]1C(=O)N1C[C@H](O)C[C@H]1C(=O)NCC(=O)N[C@@H](Cc1cccs1)C(=O)N[C@@H](CO)C(=O)N1Cc2ccccc2C[C@@H]1C(=O)N1[C@H](C(=O)N[C@@H](CCCN=C(N)N)C(=O)O)C[C@@H]2CCCC[C@@H]21 [icatibant, reference compound]
**Result** 1.40
